- CONDITION INFO: pH 2.7
Marks after values point to notes of the source that are not given here.
Provide the recorded Log P for the entries that follow.

Recorded results for 4 compounds are shown here.
[[record]]
compound = "CCOC(=O)C(C(=O)N1CCC(c2nc(C3=NOC(c4ccccc4OS(C)(=O)=O)C3)cs2)CC1)n1nc(C(F)(F)F)nc1C (stereo not drawn) [Example I-06]"
property = "Log P"
val = "3.14^[a]"

[[record]]
compound = "CCOC(=O)C(C(=O)N1CCC(c2nc(C3=NOC(c4ccccc4OS(C)(=O)=O)C3)cs2)CC1)n1nc(C(F)F)cc1C(F)F (stereo not drawn) [Example I-11]"
property = "Log P"
val = "3.28^[a]"

[[record]]
compound = "C#CCOc1cccc(Cl)c1C1CC(c2csc(C3CCN(C(=O)C(C(=O)OCC)n4nc(C(F)F)cc4C(F)F)CC3)n2)=NO1 (stereo not drawn) [Example I-16]"
property = "Log P"
val = "3.82^[a]"

[[record]]
compound = "C#CCOc1ccccc1C1CC(c2csc(C3CCN(C(=O)C(C(=O)OCc4ccccc4)n4nc(C(F)F)cc4C(F)F)CC3)n2)=NO1 (stereo not drawn) [Example I-62]"
property = "Log P"
val = "4.16^[a]"


// each listed compound needs a value for Log P
1. C#CCOc1ccccc1C1CC(c2csc(C3CCN(C(=O)C(Br)C(=O)OCc4ccccc4)CC3)n2)=NO1 (stereo not drawn) [Example I-70]
2. COCCOC(=O)C(Br)C(=O)N1CCC(c2nc(C3=NOC(c4ccccc4OS(C)(=O)=O)C3)cs2)CC1 (stereo not drawn) [Example I-36]
3. CS(=O)(=O)Oc1cccc(Cl)c1C1CC(c2csc(C3CCN(C(=O)C(Br)C(=O)OCc4ccccc4)CC3)n2)=NO1 (stereo not drawn) [Example I-67]
4. C#CCOc1cccc(F)c1C1CC(c2csc(C3CCN(C(=O)C(Br)C(=O)OCC)CC3)n2)=NO1 (stereo not drawn) [Example I-26]
5. C#CCOc1cccc(Cl)c1C1CC(c2csc(C3CCN(C(=O)C(C(=O)OCc4ccccc4)n4nc(C(F)F)cc4C(F)F)CC3)n2)=NO1 (stereo not drawn) [Example I-59]

stdout:
1: 3.72^[a]; 2: 2.53^[a]; 3: 3.54^[a]; 4: 2.98^[a]; 5: 4.28^[a]
